Biological target: LCAT (purified from human plasma) (Homo sapiens)
Construct: from tissue; host or cells: human plasma
Sequence (P04180 25-440): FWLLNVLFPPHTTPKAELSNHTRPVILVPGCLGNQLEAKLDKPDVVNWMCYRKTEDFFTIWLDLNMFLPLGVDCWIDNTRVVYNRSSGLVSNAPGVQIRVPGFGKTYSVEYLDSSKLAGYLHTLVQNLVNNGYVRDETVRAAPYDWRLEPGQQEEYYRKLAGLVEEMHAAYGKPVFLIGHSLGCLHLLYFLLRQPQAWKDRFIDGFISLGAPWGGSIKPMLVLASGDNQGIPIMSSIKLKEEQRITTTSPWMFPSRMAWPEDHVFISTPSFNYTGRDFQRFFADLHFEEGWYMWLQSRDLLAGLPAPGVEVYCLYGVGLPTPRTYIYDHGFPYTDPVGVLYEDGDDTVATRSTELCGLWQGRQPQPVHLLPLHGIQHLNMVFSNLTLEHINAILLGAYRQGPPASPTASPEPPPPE
Experiment: LCAT activation assay
Type: biochemical
Design: concentration or dose not given beside the values
Conditions: LCAT activation as compared with native human ApoA-I
Procedure: The peptides synthesized as described in Section 6, supra, were analyzed in vitro for their ability to activate LCAT. […] “Specific activity” (i.e., units of activity (LCAT activation)/unit of mass) of the peptides can be calculated as the concentration of peptide that achieves maximum LCAT activation. […]
Assign class by ACTIVITY (%) LCAT: not lower than 60% means yes; lower than 60% means no.

PVLDLFRELLNELLEAZKQKLK [peptide 10] ... yes
pVLDLFRELLNEGLEALKQKLK [peptide 19] ... no
pVLDLFRELLNELLEALKQKLKK [peptide 5] ... yes
pVLDLFRELLNELLEALKQKLK [peptide 21] ... no

Would you kindly look at the next entry?
Query string: Check this substance for ACTIVITY (%) LCAT at or above 60%: PVLDLFRELLNELZEALKQKLK [peptide 27]
Result string: no

====

Assay: Circular dichroism: degree of helicity (free, SUVs, micelles, TFE)
Settings: percent helicity of peptide-SUV complexes
Where no end group is shown, it is not given here. [ ]: non-standard residue; d: D form. Nal = non-natural residue; Aib = CC(C)(N)C(=O)O
REPORTED_ENDPOINT: He (%) SUVs
One number for each entry, in %.

Previously resolved entries follow.
50 (PVLDLFRELLWE[Aib]LEALKQKLK) [compound 50] ... 89
70 (PVLDEFRELLYE[Aib]LEALKQKLK) [compound 70] ... 33
46 (PVLDLFREKLNE[Aib]LEALKQKLK) [compound 46] ... 58

Items follow; give He (%) SUVs for each.
1. PVLDLFRELLNELLEZLKQKLK (PVLDLFRELLNELLE[Nal]LKQKLK; not fully specified) [peptide 1]
2. 215 (Ac-PVLDLFRELLEEWKQKLK-NH2) [compound 215]
3. PVLDLFRELLNEGLEALKQKLK [peptide 8]
4. PVLDLFRELLNELZEALKQKLK [peptide 27]
5. 160 (PVLELFENLLERLLDWLQKKLK) [compound 160]
6. PVLDEFREKLNEALEALKQKLK [peptide 94, reference compound]
7. LDDLLQKWAEAFNQLLKK [peptide 237, reference compound]
8. 35 (PVLDWFRELLNELLEALKQKLK) [compound 35]

Result string:
1. 81
2. 53
3. 61
4. 82
5. 75
6. 27
7. 45
8. 61

====

Assay: Circular dichroism: degree of helicity (free, SUVs, micelles, TFE)
Details: percent helicity of free, unbound peptide
Description: Far UV circular dichroism spectra were recorded between 190 and 260 nm (in 0.5 nm or 0.2 nm increments) with a AVIV62DS spectrometer (AVIV Associates, Lakewood, N.J., USA) equipped with a thermoelectric cell holder and sample changer. […] All spectra were recorded at 37° C. The stability of peptide 4 (SEQ ID NO:4) as a function of temperature (both free in buffer and in micelles) was determined by recording spectra at a series of different temperatures. […]
Where no end group is shown, it is not given here. [ ]: non-standard residue; d: D form. Aib = CC(C)(N)C(=O)O
Label key: satisfied means He (%) free under 60%; not satisfied means He (%) free of 60% or more.

99 (KLKQKLAELLENLLERFLDLVP) [compound 99] ... not satisfied
164 (PVLELFENLLERLLDAWQKKLK) [compound 164] ... satisfied

Query string: Please state whether He (%) free is below 60% for EWLEAFYKKVLEKLKELF [peptide 18AM4, reference compound]
Result string: satisfied

Query string: Please state whether He (%) free is below 60% for PVLDLFRELLNEGLEALKQKLK [peptide 8]
Result string: satisfied

Query string: Please state whether He (%) free is below 60% for 37 (PVLDLFREWLNELLEALKQKLK) [compound 37]
Result string: not satisfied

Query string: Please state whether He (%) free is below 60% for 49 (PVLDLFRNLLEKLLEALEQKLK) [compound 49]
Result string: satisfied

Query string: Please state whether He (%) free is below 60% for 105 (PAADAFREAANEAAEAAKQKAK) [compound 105]
Result string: satisfied

Query string: Please state whether He (%) free is below 60% for 31 (PVLDLFLELLNE[Aib]LEALKQKLK) [compound 31]
Result string: satisfied

Query string: Please state whether He (%) free is below 60% for PVLDEFREKLNEALEALKQKLK [peptide 94, reference compound]
Result string: satisfied

Query string: Please state whether He (%) free is below 60% for EWLKAFYEKVLEKLKELF [peptide 248, reference compound]
Result string: satisfied

Query string: Please state whether He (%) free is below 60% for 209 (PVLDLFRELLNELLQKLK) [compound 209]
Result string: satisfied

Query string: Please state whether He (%) free is below 60% for 76 (PVLDEFRELLFE[Aib]LEALKQKLK) [compound 76]
Result string: satisfied

Query string: Please state whether He (%) free is below 60% for 199 (Ac-PVLDLFRELWEELKQKLK-NH2) [compound 199]
Result string: satisfied

Query string: Please state whether He (%) free is below 60% for PVLDLFRELLNELLEWLKQKLK [peptide 3]
Result string: not satisfied

Query string: Please state whether He (%) free is below 60% for 162 (PVLELFENWLERLLDALQKKLK) [compound 162]
Result string: not satisfied

Query string: Please state whether He (%) free is below 60% for 194 (Ac-PVLELFRELLEELKQKLK-NH2) [compound 194]
Result string: satisfied

Query string: Please state whether He (%) free is below 60% for 104 (PLLNELLEALKQKLK) [compound 104]
Result string: satisfied

Query string: Please state whether He (%) free is below 60% for 39 (PVLDLFRELLEELLKALKKKLK) [compound 39]
Result string: not satisfied

Query string: Please state whether He (%) free is below 60% for DWLKAFYDKVFEKFKEFF [peptide 245, reference compound]
Result string: satisfied

Query string: Please state whether He (%) free is below 60% for 46 (PVLDLFREKLNE[Aib]LEALKQKLK) [compound 46]
Result string: satisfied

Query string: Please state whether He (%) free is below 60% for 163 (PVLELFENLLERLWDALQKKLK) [compound 163]
Result string: satisfied

Measured values drawn from patent US6602854B1 for this set.
